Test: Zeta potential of peptide-DNA polyplexes
Type: physicochemical
Details: positive (+ mV); peptide-DNA polyplex 0.5 nmol peptide per µg DNA, 5 mM Hepes, pH 7.4 (footnote), mean of ten measurements
Give measured Zeta Potential for each item. Keep answers brief.
Please state the figure in mV; there is no need to write the unit.

Form: substance = (Acr-Arg)4-C-CWKKGIGAVLKVLTTGLPALISLIKRKRQQ (disulfide) [poly(Acr-Arg)4-SS-melittin] ; Zeta Potential = 29

Sure, the documented Zeta Potential for (Acr-Arg)2-C-CWKKGIGAVLKVLTTGLPALISLIKRKRQQ (disulfide) [poly(Acr-Arg)2-SS-melittin] is 25

(Acr-Arg)3-C-CWKKGIGAVLKVLTTGLPALISLIKRKRQQ (disulfide) [poly(Acr-Arg)3-SS-melittin] has a reported Zeta Potential of 29

Per the record, W(Lys(Ac)-Arg)4-C-CWKKGIGAVLKVLTTGLPALISLIKRKRQQ (disulfide) [poly(Lys(Ac)-Arg)4-SS-melittin] has Zeta Potential of 20
